The measured values listed here are drawn from PubChem BioAssay AID1224865.

target: Hepatocyte nuclear factor 4-alpha (Homo sapiens) (UniProt P41235); test: change in binding of human HNF4A to DNA, primary screen, biochemical, fluorescence polarization, FITC-DNA (AID 1224865); settings: 1 h, at 10 µM, stronger effect = higher value
Sequence (P41235 whole entry, looked up): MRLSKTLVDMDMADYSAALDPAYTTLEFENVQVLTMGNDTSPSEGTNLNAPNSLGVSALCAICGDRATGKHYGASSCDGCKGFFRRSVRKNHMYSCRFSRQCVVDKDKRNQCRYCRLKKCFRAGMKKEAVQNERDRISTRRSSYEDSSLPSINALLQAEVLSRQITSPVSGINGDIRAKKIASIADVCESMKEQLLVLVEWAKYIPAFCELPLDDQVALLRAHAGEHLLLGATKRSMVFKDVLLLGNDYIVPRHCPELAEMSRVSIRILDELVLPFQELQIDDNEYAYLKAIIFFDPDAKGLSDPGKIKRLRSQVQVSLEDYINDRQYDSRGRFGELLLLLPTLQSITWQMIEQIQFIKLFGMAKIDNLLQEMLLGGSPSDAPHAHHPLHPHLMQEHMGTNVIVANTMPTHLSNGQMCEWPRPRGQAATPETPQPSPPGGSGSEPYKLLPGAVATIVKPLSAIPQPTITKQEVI
In all, about 360,000 compounds went through this assay and about 1,100 (0.31%) were called active. The sample holds actives, similar compounds and a random draw of the others, so the mix is not that of the screen.
Below, each entry is listed alongside its reported activity change.

# Compound, activity change / %
data = [
    ("O=C(O)c1ccc(NN=CC2=C(N3CCOCC3)/C(=C/c3ccccc3)CC2)cc1", 41.5),
    ("FC(F)Oc1ccc(NC(=S)NCc2ccco2)cc1Cl", 8.22),
    ("O=C(Nc1cccc(-c2nc3ccccc3[nH]2)c1)c1ccc(C(=O)Nc2cccc(-c3nc4ccccc4[nH]3)c2)cc1", 81.8),
    ("CCOc1ccc(C(=O)Nc2cccc(-c3ccc4nncn4n3)c2)cc1", -0.86),
    ("O=C(O)c1ccc(N=NN2CCOCC2)cc1", 1.22),
    ("Cc1c(N=Nc2ccc(N(C)C)cc2)c(=O)n(-c2ccccc2)n1C", 35.5),
    ("O=C(O)c1ccc(N/N=C/c2ccc3ncccc3c2)cc1", -1.15),
    ("COC(=O)c1ccc(C(=O)OC)c(NC(=S)N2CCN(c3ccc(F)cc3)CC2)c1", -1.17),
    ("O=C(NC1CCCC1)C1c2ccccc2OCC(=O)N1CC(F)(F)F (stereo unspecified)", 2),
    ("CCOc1ccc(C(=O)Nc2cccc(SC)c2)cc1", 0.43),
    ("O=C(CO/N=C/c1ccc(OC(F)F)cc1)NCc1ccc(F)cc1", -1.87),
]

* * *

Below, each entry is listed alongside its reported activity change.
target: Hepatocyte nuclear factor 4-alpha (Homo sapiens); experiment: change in binding of human HNF4A to DNA, primary screen, biochemical, fluorescence polarization, FITC-DNA (AID 1224865); conditions: 1 h, at 10 µM, stronger effect = higher value
Screen size: about 360,000 compounds; about 1,100 (0.31%) were called active. The entries come from a sample that favours actives as a whole.

# Compound, Assay system, activity change
measured = [
    ("N[C@@H](Cc1ccccc1)C(=O)N1CCOCC1", "Hepatocyte nuclear factor 4-alpha (Homo sapiens)", "2.36% (inactive)"),
    ("O=c1cc(CN2CCCCCCC2)c2c(ccc3ccccc32)o1", "Hepatocyte nuclear factor 4-alpha (Homo sapiens)", "-1.79% (inactive)"),
    ("O=C(CCc1nnc2ccc(NCCCN3CCCC3=O)nn12)NCc1ccccc1Cl", "Hepatocyte nuclear factor 4-alpha (Homo sapiens)", "1.08% (inactive)"),
    ("O=C(CC1SC(=Nc2ccccc2F)N(CCN2CCOCC2)C1=O)Nc1ccc(F)cc1F (stereo unspecified)", "Hepatocyte nuclear factor 4-alpha (Homo sapiens)", "2.99% (inactive)"),
    ("O=C(COC(=O)/C=C/c1ccc(S(=O)(=O)N2CCCCCC2)cc1)NCc1ccccc1Cl", "Hepatocyte nuclear factor 4-alpha (Homo sapiens)", "-2.22% (inactive)"),
    ("Cc1ccc(S(=O)(=O)N2CCC(C)CC2)cc1C(=O)NCc1ccccn1", "Hepatocyte nuclear factor 4-alpha (Homo sapiens)", "0.82% (inactive)"),
    ("O=C1COc2ccc(S(=O)(=O)NCCc3ccc(Cl)cc3)cc2N1", "Hepatocyte nuclear factor 4-alpha (Homo sapiens)", "1.98% (inactive)"),
    ("COC(=O)[C@]1(C)N[C@H](c2ccc(-c3ccc(Cl)c(Cl)c3)cc2)[C@@H]2C(=O)N(C)C(=O)[C@@H]21", "Hepatocyte nuclear factor 4-alpha (Homo sapiens)", "-0.96% (inactive)"),
    ("Cc1cccc(COc2ccccc2/C=N/Nc2ccc([N+](=O)[O-])cc2)c1", "Hepatocyte nuclear factor 4-alpha (Homo sapiens)", "53.2% (active)"),
    ("COC(=O)c1c(NC(=O)CN2CCN(S(=O)(=O)c3ccccc3[N+](=O)[O-])CC2)sc2c1CCC(C)C2 (stereo unspecified)", "Hepatocyte nuclear factor 4-alpha (Homo sapiens)", "0.7% (inactive)"),
    ("COc1cc(/C=N\\NC(=O)c2nonc2N)c(OC)cc1Br", "Hepatocyte nuclear factor 4-alpha (Homo sapiens)", "-0.19% (inactive)"),
    ("COc1ccc(C(=O)N2CCCCC2c2cc(C(=O)Nc3ccc(F)c(Cl)c3)no2)cc1 (stereo unspecified)", "Hepatocyte nuclear factor 4-alpha (Homo sapiens)", "-0.55% (inactive)"),
    ("CCOC(=O)/C(C#N)=C\\c1c(C)cc(C)c(COC(C)=O)c1C", "Hepatocyte nuclear factor 4-alpha (Homo sapiens)", "2.55% (inactive)"),
    ("Cc1ccccc1OCCOc1ccc([N+](=O)[O-])cc1/C=N/n1cnnc1", "Hepatocyte nuclear factor 4-alpha (Homo sapiens)", "0.85% (inactive)"),
    ("O=C(OC(C(=O)NC1CCCC1)c1ccc(F)cc1)c1ccno1 (stereo unspecified)", "Hepatocyte nuclear factor 4-alpha (Homo sapiens)", "-0.09% (inactive)"),
    ("Cc1ccc2[nH]c(=O)c(CN3CCCCC3)c(-c3ccccc3)c2c1", "Hepatocyte nuclear factor 4-alpha (Homo sapiens)", "-1.94% (inactive)"),
    ("Cc1ccc2[nH]c(=O)c(CN(CCCN(C)C)C(=O)Nc3cccc(Cl)c3)cc2c1", "Hepatocyte nuclear factor 4-alpha (Homo sapiens)", "4.9% (inactive)"),
    ("CCOC(=O)/C(C#N)=C/c1ccc(N2CCCCC2)cc1", "Hepatocyte nuclear factor 4-alpha (Homo sapiens)", "42.2% (active)"),
    ("Cc1ccc(Cl)cc1NC(=S)N(CCN(C)C)Cc1cccs1", "Hepatocyte nuclear factor 4-alpha (Homo sapiens)", "-2.05% (inactive)"),
    ("Cc1nn(Cc2ccc(C(=O)N3N=C(C(F)F)CC3(O)C(F)F)cc2)c(C)c1[N+](=O)[O-] (stereo unspecified)", "Hepatocyte nuclear factor 4-alpha (Homo sapiens)", "1.52% (inactive)"),
    ("COc1ccc(C(C)=O)cc1COC(=O)Cn1cnc2ccccc2c1=O", "Hepatocyte nuclear factor 4-alpha (Homo sapiens)", "3.19% (inactive)"),
]
